# TEST SUMMARY: Critical micelle concentration (CMC) by Wilhelmy plate method, K100C Force Tensiometer
# Format: physicochemical
# RUN CONDITIONS: 25° C., pH 3

# SAMPLE SMILES, CMC value / mM
measured = [
    ("CCCCCCCCOc1c(C[N+](C)(C)[O-])cc(CC)cc1OC", 4.1),
]

* * *

# TEST SUMMARY: Critical micelle concentration (CMC) by Wilhelmy plate method, K100C Force Tensiometer
# Format: physicochemical
# RUN CONDITIONS: critical micelle concentration of the protonated or cationic form; Wilhelmy plate method, 25° C., pH 3
class 1 if CMC is below 5 mmol/L. class 0 if not; exact matches included in class 0.

# COMPOUND, LABEL VALUE
measured = [
    ("CCCCCCCCCCCCOc1c(C[N+]2([O-])CCCC2)cc(CC)cc1OC [Compound 7]", "class 0"),
    ("CCCCCCCCCCCC[N+](C)(C)[O-] [Compound C1, dodecyldimethylamine N-oxide, reference compound]", "class 0"),
    ("CCCCCCCCCCCCOc1c(C[N+]2([O-])CCCCC2)cc(CC)cc1OC [Compound 8]", "class 0"),
    ("CCCCCCCCOc1c(C[N+](C)(C)[O-])cc(CC)cc1OC [Compound 1]", "class 1"),
    ("CCCCCCCCCCCCCCOc1c(C[N+](C)(C)[O-])cc(CC)cc1OC [Compound 4]", "class 0"),
    ("CCCCCCCCCCOc1c(C[N+](C)(C)[O-])cc(CC)cc1OC [Compound 2]", "class 0"),
    ("CCCCCCCCCCCCCCCCCCOc1c(C[N+](C)(C)[O-])cc(CC)cc1OC [Compound 6]", "class 1"),
]
